assay: Drug level in CD1 mouse brain at 30 mg/kg, po after 24 hrs; type: ADME, organism-based; design: dose 30 mg/kg, route oral; conditions: read-out: Drug uptake
PROPERTY MEASURED: concentration at 24 h (ng/g)
Form entry: value (ng/g) — number only.

Endpoint output: concentration at 24 h of `CC(=O)O[C@@H]([C@H]1C[C@@H](C)[C@H]2[C@H](O1)[C@H](O)[C@@]1(C)[C@@H]3CC[C@H]4C(C)(C)[C@@H](O[C@H]5CNCCO5)CC[C@@]45C[C@@]35CC[C@]21C)C(C)(C)O` . Value?
116

* * *

experiment: Inhibition of gamma-secretase-mediated amyloid beta-40 production in diluted 2B7 conditioned media after 5 hrs
PROPERTY MEASURED: IC50 (µM)
Form entry: value (µM) — number only.

CC(=O)O[C@@H]([C@H]1C[C@@H](C)[C@H]2[C@H](O1)[C@H](O)[C@@]1(C)[C@@H]3CC[C@H]4C(C)(C)[C@@H](O[C@H]5CN(CC(=O)O)CCO5)CC[C@@]45C[C@@]35CC[C@]21C)C(C)(C)O 14

Endpoint output: IC50 of `CC(=O)O[C@@H]([C@H]1C[C@@H](C)[C@H]2[C@H](O1)[C@H](O)[C@@]1(C)[C@@H]3CC[C@H]4C(C)(C)[C@@H](O[C@H]5CNCCO5)CC[C@@]45C[C@@]35CC[C@]21C)C(C)(C)O` . Value?
1.4

Can you handle `CC(=O)O[C@@H]([C@H]1C[C@@H](C)[C@H]2[C@H](O1)[C@H](O)[C@@]1(C)[C@@H]3CC[C@H]4C(C)(C)[C@@H](O[C@H]5CN(C)CCO5)CC[C@@]45C[C@@]35CC[C@]21C)C(C)(C)O` next?
3.4

Can you handle `COCCN1CCO[C@@H](O[C@H]2CC[C@]34C[C@]35CC[C@]3(C)[C@@H]6[C@H](O[C@@H]([C@H](OC(C)=O)C(C)(C)O)C[C@H]6C)[C@H](O)[C@@]3(C)[C@@H]5CC[C@H]4C2(C)C)C1` next?
7.6

* * *

test: Volume of distribution in CD1 mouse at 1 mg/kg, iv; format: ADME, organism-based; parameters: dose 1 mg/kg, route intravenous; conditions: in vivo
The entries below are paired with their reported Vd.
Form entry: value (L/kg) — number only.

CC(=O)O[C@@H]([C@H]1C[C@@H](C)[C@H]2[C@H](O1)[C@H](O)[C@@]1(C)[C@@H]3CC[C@H]4C(C)(C)[C@@H](O[C@H]5CNCCO5)CC[C@@]45C[C@@]35CC[C@]21C)C(C)(C)O 12.1

The record that follows has no Vd shown yet.
Endpoint output: Vd of `CC(=O)O[C@@H]([C@H]1C[C@@H](C)[C@H]2[C@H](O1)[C@H](O)[C@@]1(C)[C@@H]3CC[C@H]4C(C)(C)[C@@H](O[C@H]5CN(C6COC6)CCO5)CC[C@@]45C[C@@]35CC[C@]21C)C(C)(C)O` . Value?
0.6

* * *

The entries below are paired with their reported inhibition.
assay: Inhibition of gamma-secretase-mediated amyloid beta-40 production in diluted 2B7 conditioned media at 20 uM after 5 hrs
Form entry: value (%) — number only.

CC(=O)O[C@@H]([C@H]1C[C@@H](C)[C@H]2[C@H](O1)[C@H](O)[C@@]1(C)[C@@H]3CC[C@H]4C(C)(C)[C@@H](O[C@H]5CN(C(=O)CC6CC6)CCO5)CC[C@@]45C[C@@]35CC[C@]21C)C(C)(C)O 38

Endpoint output: inhibition of `CC(=O)O[C@@H]([C@H]1C[C@@H](C)[C@H]2[C@H](O1)[C@H](O)[C@@]1(C)[C@@H]3CC[C@H]4C(C)(C)[C@@H](O[C@H]5CN(C6CC6)CCO5)CC[C@@]45C[C@@]35CC[C@]21C)C(C)(C)O` . Value?
35

Can you handle `CC(=O)O[C@@H]([C@H]1C[C@@H](C)[C@H]2[C@H](O1)[C@H](O)[C@@]1(C)[C@@H]3CC[C@H]4C(C)(C)[C@@H](O[C@H]5CN(S(C)(=O)=O)CCO5)CC[C@@]45C[C@@]35CC[C@]21C)C(C)(C)O` next?
40

Can you handle `CC(=O)O[C@@H]([C@H]1C[C@@H](C)[C@H]2[C@H](O1)[C@H](O)[C@@]1(C)[C@@H]3CC[C@H]4C(C)(C)[C@@H](O[C@H]5CN([C@@H]6CCNC6=O)CCO5)CC[C@@]45C[C@@]35CC[C@]21C)C(C)(C)O` next?
44

Can you handle `CC(=O)O[C@@H]([C@H]1C[C@@H](C)[C@H]2[C@H](O1)[C@H](O)[C@@]1(C)[C@@H]3CC[C@H]4C(C)(C)[C@@H](O[C@H]5CN(CC(F)(F)F)CCO5)CC[C@@]45C[C@@]35CC[C@]21C)C(C)(C)O` next?
47

Can you handle `CC(=O)O[C@@H]([C@H]1C[C@@H](C)[C@H]2[C@H](O1)[C@H](O)[C@@]1(C)[C@@H]3CC[C@H]4C(C)(C)[C@@H](O[C@H]5CN(C(=O)N(C)C)CCO5)CC[C@@]45C[C@@]35CC[C@]21C)C(C)(C)O` next?
40

Can you handle `CC(=O)O[C@@H]([C@H]1C[C@@H](C)[C@H]2[C@H](O1)[C@H](O)[C@@]1(C)[C@@H]3CC[C@H]4C(C)(C)[C@@H](O[C@H]5CN(C(=O)c6cn(C)cn6)CCO5)CC[C@@]45C[C@@]35CC[C@]21C)C(C)(C)O` next?
44

Can you handle `CC(=O)O[C@@H]([C@H]1C[C@@H](C)[C@H]2[C@H](O1)[C@H](O)[C@@]1(C)[C@@H]3CC[C@H]4C(C)(C)[C@@H](O[C@H]5CN(C6COC6)CCO5)CC[C@@]45C[C@@]35CC[C@]21C)C(C)(C)O` next?
41

* * *

assay: Drug level in CD1 mouse brain at 30 mg/kg, po after 8 hrs; assay type: ADME, organism-based; parameters: dose 30 mg/kg, route oral; conditions: read-out: Drug uptake
PROPERTY MEASURED: concentration at 8 h (ng/g)
Form entry: value (ng/g) — number only.

Endpoint output: concentration at 8 h of `CC(=O)O[C@@H]([C@H]1C[C@@H](C)[C@H]2[C@H](O1)[C@H](O)[C@@]1(C)[C@@H]3CC[C@H]4C(C)(C)[C@@H](O[C@H]5CNCCO5)CC[C@@]45C[C@@]35CC[C@]21C)C(C)(C)O` . Value?
2260

* * *

experiment: Plasma concentration in CD1 mouse at 30 mg/kg, po after 8 hrs; assay type: ADME, organism-based; set-up: dose 30 mg/kg, route oral
PROPERTY MEASURED: concentration at 8 h

Endpoint output: concentration at 8 h of `CC(=O)O[C@@H]([C@H]1C[C@@H](C)[C@H]2[C@H](O1)[C@H](O)[C@@]1(C)[C@@H]3CC[C@H]4C(C)(C)[C@@H](O[C@H]5CNCCO5)CC[C@@]45C[C@@]35CC[C@]21C)C(C)(C)O` . Value?
857 ng/mL

* * *

assay: Inhibition of gamma-secretase-mediated amyloid beta-42 production in diluted 2B7 conditioned media after 5 hrs
The entries below are paired with their reported pIC50.
Please report pIC50 as the negative decimal logarithm of the molar concentration, giving only the number.

Solved entries (count: 2):
CC(=O)O[C@@H]([C@H]1C[C@@H](C)[C@H]2[C@H](O1)[C@H](O)[C@@]1(C)[C@@H]3CC[C@H]4C(C)(C)[C@@H](O[C@H]5CN(C(=O)CC6CC6)CCO5)CC[C@@]45C[C@@]35CC[C@]21C)C(C)(C)O 6.89
CC(=O)O[C@@H]([C@H]1C[C@@H](C)[C@H]2[C@H](O1)[C@H](O)[C@@]1(C)[C@@H]3CC[C@H]4C(C)(C)[C@@H](O[C@H]5CN(CCN6CCCC6)CCO5)CC[C@@]45C[C@@]35CC[C@]21C)C(C)(C)O 6.96

The record that follows has no pIC50 shown yet.
Endpoint output: pIC50 of `CC(=O)O[C@@H]([C@H]1C[C@@H](C)[C@H]2[C@H](O1)[C@H](O)[C@@]1(C)[C@@H]3CC[C@H]4C(C)(C)[C@@H](O[C@H]5CN(Cc6ncc[nH]6)CCO5)CC[C@@]45C[C@@]35CC[C@]21C)C(C)(C)O` . Value?
6.92

* * *

assay: Inhibition of gamma-secretase-mediated amyloid beta-40 production in diluted 2B7 conditioned media after 5 hrs
The entries below are paired with their reported pIC50.
Please report pIC50 as the negative decimal logarithm of the molar concentration, giving only the number.

Solved entries (count: 10):
CC(=O)O[C@@H]([C@H]1C[C@@H](C)[C@H]2[C@H](O1)[C@H](O)[C@@]1(C)[C@@H]3CC[C@H]4C(C)(C)[C@@H](O[C@H]5CN(C(C)=O)CCO5)CC[C@@]45C[C@@]35CC[C@]21C)C(C)(C)O 4.87
CC(=O)O[C@@H]([C@H]1C[C@@H](C)[C@H]2[C@H](O1)[C@H](O)[C@@]1(C)[C@@H]3CC[C@H]4C(C)(C)[C@@H](O[C@H]5CN(CC(=O)N(C)C)CCO5)CC[C@@]45C[C@@]35CC[C@]21C)C(C)(C)O 5.05
CC(=O)O[C@@H]([C@H]1C[C@@H](C)[C@H]2[C@H](O1)[C@H](O)[C@@]1(C)[C@@H]3CC[C@H]4C(C)(C)[C@@H](O[C@H]5CN(CCC(=O)O)CCO5)CC[C@@]45C[C@@]35CC[C@]21C)C(C)(C)O 4.73
CC(=O)O[C@@H]([C@H]1C[C@@H](C)[C@H]2[C@H](O1)[C@H](O)[C@@]1(C)[C@@H]3CC[C@H]4C(C)(C)[C@@H](O[C@@H]5OC[C@@H](O)[C@H](O)[C@H]5O)CC[C@@]45C[C@@]35CC[C@]21C)C(C)(C)O 6.00
CC(=O)O[C@@H]([C@H]1C[C@@H](C)[C@H]2[C@H](O1)[C@H](O)[C@@]1(C)[C@@H]3CC[C@H]4C(C)(C)[C@@H](O[C@H]5CN(C6COC6)CCO5)CC[C@@]45C[C@@]35CC[C@]21C)C(C)(C)O 4.85
CC(=O)O[C@@H]([C@H]1C[C@@H](C)[C@H]2[C@H](O1)[C@H](O)[C@@]1(C)[C@@H]3CC[C@H]4C(C)(C)[C@@H](O[C@H]5CN(CC(N)=O)CCO5)CC[C@@]45C[C@@]35CC[C@]21C)C(C)(C)O 5.11
CC(=O)O[C@@H]([C@H]1C[C@@H](C)[C@H]2[C@H](O1)[C@H](O)[C@@]1(C)[C@@H]3CC[C@H]4C(C)(C)[C@@H](O[C@H]5CN(C(=O)c6ccno6)CCO5)CC[C@@]45C[C@@]35CC[C@]21C)C(C)(C)O 5.32
CC(=O)O[C@@H]([C@H]1C[C@@H](C)[C@H]2[C@H](O1)[C@H](O)[C@@]1(C)[C@@H]3CC[C@H]4C(C)(C)[C@@H](O[C@H]5CN(CC(C)(C)O)CCO5)CC[C@@]45C[C@@]35CC[C@]21C)C(C)(C)O 5.03
CC(=O)O[C@@H]([C@H]1C[C@@H](C)[C@H]2[C@H](O1)[C@H](O)[C@@]1(C)[C@@H]3CC[C@H]4C(C)(C)[C@@H](O[C@H]5CN(C(=O)C6(C)COC6)CCO5)CC[C@@]45C[C@@]35CC[C@]21C)C(C)(C)O 5.10
CC(=O)O[C@@H]([C@H]1C[C@@H](C)C2=C(O1)[C@H](O)[C@@]1(C)[C@@H]3CC[C@H]4C(C)(C)[C@@H](O[C@@H]5OC[C@@H](O)[C@H](O)[C@H]5O)CC[C@@]45C[C@@]35CC[C@]21C)C(C)(C)O 5.57

Endpoint output: pIC50 of `CCCN1CCO[C@@H](O[C@H]2CC[C@]34C[C@]35CC[C@]3(C)[C@@H]6[C@H](O[C@@H]([C@H](OC(C)=O)C(C)(C)O)C[C@H]6C)[C@H](O)[C@@]3(C)[C@@H]5CC[C@H]4C2(C)C)C1` . Value?
4.80

Can you handle `CC(=O)O[C@@H]([C@H]1C[C@@H](C)[C@H]2[C@H](O1)[C@H](O)[C@@]1(C)[C@@H]3CC[C@H]4C(C)(C)[C@@H](O[C@H]5CN([C@H]6CCNC6=O)CCO5)CC[C@@]45C[C@@]35CC[C@]21C)C(C)(C)O` next?
5.15
